Target: BRM (Homo sapiens)
Assay: ATPase catalytic activity assay of BRM (ADP-Glo)
Format: biochemical
Listing of entries alongside the reported BRM Max % Inhibition.

// worked examples, BRM Max % Inhibition included
INSERT INTO assay_data (molecule, assay_target, result) VALUES
  ('C[C@@H]1CN(c2cccc(-c3csc(NC(=O)CNC(=O)c4cccc([C@]5(C)C[C@@H](O)C5)c4)n3)c2)C[C@H](C)O1 [Compound 392]', 'BRM (Homo sapiens)', '>90%'),
  ('CCOC(=O)N1CCC[C@H](c2csc(NC(=O)CNC(=O)c3ccc4c(c3)C(C)(F)COC4)n2)C1 (stereo in doubt) [Compound 284]', 'BRM (Homo sapiens)', '>95%'),
  ('C[C@@H]1CN(c2cccc(-c3csc(NC(=O)CNC(=O)c4ccc5c(c4)[C@](C)(C#N)CCO5)n3)n2)C[C@H](C)O1 [Compound 153]', 'BRM (Homo sapiens)', '>95%'),
  ('CSCC[C@H](NC(=O)c1ccc2c(c1)C(C)(O)C(=O)N2)C(=O)Nc1nc(-c2ccccc2)cs1 (stereo partly shown) [Compound 85]', 'BRM (Homo sapiens)', '>80%'),
  ('Cn1ccc2ccc(-c3csc(NC(=O)CNC(=O)c4ccc5c(c4)[C@](C)(CO)CC5)n3)cc2c1=O [Compound 177]', 'BRM (Homo sapiens)', '>95%'),
  ('CC(C)S(=O)(=O)c1cccc(C(=O)NCC(=O)Nc2nc(-c3cccc(-c4cc(Cl)cc(Cl)c4)c3)cs2)c1 [Compound 30]', 'BRM (Homo sapiens)', '>90%');

Okay, now this molecule:
Reported BRM Max % Inhibition, molecule Cc1cc(-c2cccc(-c3csc(NC(=O)CNC(=O)c4cccc(C(C)(C)CN)c4)n3)c2)ncn1 [Compound 98] : ____ >95%

###

Biological target: BRM (Homo sapiens, UniProt P51531)
Sequence (P51531 whole entry): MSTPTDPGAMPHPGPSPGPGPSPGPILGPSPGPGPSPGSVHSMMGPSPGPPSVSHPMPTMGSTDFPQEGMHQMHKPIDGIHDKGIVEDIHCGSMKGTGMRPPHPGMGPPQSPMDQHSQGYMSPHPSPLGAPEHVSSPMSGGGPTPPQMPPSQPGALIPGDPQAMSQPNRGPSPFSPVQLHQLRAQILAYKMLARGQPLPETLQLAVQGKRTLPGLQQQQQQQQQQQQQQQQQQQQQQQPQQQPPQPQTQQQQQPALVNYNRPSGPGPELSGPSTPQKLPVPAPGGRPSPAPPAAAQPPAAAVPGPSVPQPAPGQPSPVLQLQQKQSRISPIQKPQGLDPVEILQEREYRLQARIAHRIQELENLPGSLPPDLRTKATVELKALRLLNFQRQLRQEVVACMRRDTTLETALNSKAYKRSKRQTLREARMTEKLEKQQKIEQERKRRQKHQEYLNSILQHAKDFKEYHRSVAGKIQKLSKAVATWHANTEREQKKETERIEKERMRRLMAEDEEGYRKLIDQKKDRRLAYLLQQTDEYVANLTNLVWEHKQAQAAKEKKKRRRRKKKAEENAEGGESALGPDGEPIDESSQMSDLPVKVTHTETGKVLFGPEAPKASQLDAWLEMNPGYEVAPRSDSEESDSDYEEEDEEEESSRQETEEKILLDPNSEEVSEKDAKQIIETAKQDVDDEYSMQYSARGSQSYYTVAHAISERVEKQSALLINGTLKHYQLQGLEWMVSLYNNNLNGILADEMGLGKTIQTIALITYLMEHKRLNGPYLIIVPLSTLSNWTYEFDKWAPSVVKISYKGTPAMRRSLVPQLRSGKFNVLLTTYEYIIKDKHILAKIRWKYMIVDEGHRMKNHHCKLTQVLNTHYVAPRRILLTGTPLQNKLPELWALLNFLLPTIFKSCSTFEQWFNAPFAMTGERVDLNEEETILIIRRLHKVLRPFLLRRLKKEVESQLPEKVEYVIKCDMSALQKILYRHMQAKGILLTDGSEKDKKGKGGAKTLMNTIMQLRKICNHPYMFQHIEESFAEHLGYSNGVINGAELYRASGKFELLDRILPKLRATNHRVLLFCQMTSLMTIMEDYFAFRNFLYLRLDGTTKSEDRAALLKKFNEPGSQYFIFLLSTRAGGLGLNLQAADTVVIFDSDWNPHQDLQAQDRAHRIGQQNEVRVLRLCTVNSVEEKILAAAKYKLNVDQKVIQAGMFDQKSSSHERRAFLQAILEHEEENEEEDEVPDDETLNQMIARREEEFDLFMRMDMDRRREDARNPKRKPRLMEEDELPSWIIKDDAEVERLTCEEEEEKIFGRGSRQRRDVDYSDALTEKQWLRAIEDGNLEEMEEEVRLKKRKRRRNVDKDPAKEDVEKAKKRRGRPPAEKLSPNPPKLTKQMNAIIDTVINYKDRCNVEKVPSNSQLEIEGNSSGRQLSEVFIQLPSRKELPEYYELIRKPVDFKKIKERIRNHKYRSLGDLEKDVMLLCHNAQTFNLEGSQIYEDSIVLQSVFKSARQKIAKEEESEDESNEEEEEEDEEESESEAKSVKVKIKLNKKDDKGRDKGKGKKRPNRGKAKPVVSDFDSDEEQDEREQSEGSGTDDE
Assay: ATPase catalytic activity assay of BRM (ADP-Glo)
Assay type: biochemical
Conditions: read-out: BRM IC50 (μM)*
OUTCOME_MEASURE: IC50

INSERT INTO results (compound, result) VALUES
  ('O=C(CNC(=O)c1cccc(C2(C(F)F)COC2)c1)Nc1nc(-c2cccc(N3CCC3)c2)cs1', '< 0.1 µM'),
  ('C[C@@]1(C#N)COCc2ccc(C(=O)NCC(=O)Nc3nc(-c4cccc(C5CCO5)c4)cs3)cc21 (stereo partly shown) [Compound 365]', '< 0.1 µM');

Reported IC50, compound C[C@@H]1CN(c2cccc(-c3csc(NC(=O)CNC(=O)c4cccc([C@]5(F)C[C@@H](F)C5)c4)n3)n2)C[C@H](C)O1 : ____ 0.1 to 1 µM

Reported IC50, compound COc1cc(-c2cccc(-c3csc(NC(=O)CNC(=O)c4cccc(C(C)(C)CN)c4)n3)c2)ccn1 : ____ 0.1 to 1 µM

###

Target: BRG-1 (Homo sapiens)
Sequence (P51532 whole entry): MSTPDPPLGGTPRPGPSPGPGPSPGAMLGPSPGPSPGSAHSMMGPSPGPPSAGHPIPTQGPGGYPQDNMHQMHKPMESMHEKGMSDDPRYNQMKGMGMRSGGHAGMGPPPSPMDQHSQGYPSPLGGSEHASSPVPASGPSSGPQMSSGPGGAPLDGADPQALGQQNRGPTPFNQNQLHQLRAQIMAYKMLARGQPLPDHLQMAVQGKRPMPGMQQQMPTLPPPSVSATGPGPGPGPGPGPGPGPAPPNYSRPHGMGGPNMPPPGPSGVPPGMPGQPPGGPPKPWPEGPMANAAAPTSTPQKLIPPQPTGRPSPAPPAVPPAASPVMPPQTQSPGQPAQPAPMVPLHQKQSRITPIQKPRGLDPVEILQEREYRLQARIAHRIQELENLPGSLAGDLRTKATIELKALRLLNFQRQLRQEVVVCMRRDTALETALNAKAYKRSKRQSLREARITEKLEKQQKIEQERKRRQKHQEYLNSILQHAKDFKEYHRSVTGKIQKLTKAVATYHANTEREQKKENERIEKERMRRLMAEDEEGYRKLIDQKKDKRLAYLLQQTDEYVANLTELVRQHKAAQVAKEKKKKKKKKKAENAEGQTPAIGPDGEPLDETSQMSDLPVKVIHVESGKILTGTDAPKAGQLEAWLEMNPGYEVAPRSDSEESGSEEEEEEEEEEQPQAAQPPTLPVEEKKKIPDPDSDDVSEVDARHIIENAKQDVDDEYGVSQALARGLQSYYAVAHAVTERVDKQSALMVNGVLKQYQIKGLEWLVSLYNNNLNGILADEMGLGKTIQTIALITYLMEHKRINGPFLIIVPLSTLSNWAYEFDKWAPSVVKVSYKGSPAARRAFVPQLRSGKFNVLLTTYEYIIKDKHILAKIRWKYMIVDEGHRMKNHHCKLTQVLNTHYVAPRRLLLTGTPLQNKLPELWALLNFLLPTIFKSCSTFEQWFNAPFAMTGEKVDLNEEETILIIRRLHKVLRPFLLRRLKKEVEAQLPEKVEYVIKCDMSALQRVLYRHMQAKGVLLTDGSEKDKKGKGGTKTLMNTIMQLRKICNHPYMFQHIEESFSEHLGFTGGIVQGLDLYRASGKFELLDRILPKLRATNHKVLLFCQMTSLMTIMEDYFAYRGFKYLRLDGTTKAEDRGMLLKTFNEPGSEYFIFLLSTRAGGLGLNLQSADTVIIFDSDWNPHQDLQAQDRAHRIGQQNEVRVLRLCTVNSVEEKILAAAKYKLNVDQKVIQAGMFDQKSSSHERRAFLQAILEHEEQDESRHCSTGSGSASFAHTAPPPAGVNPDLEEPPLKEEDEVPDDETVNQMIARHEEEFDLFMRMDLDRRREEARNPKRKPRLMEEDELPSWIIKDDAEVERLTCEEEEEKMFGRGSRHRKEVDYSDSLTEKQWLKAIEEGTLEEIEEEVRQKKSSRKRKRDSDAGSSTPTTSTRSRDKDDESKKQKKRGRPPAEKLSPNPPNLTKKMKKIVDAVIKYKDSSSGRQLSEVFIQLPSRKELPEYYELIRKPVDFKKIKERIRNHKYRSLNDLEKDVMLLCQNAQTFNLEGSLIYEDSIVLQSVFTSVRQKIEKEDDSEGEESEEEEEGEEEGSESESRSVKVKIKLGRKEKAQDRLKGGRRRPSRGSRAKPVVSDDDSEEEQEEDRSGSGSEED
Assay: ATPase catalytic activity assay of BRG-1 (ADP-Glo)
Assay type: biochemical
Settings: ATPase catalytic activity, ADP-Glo; read-out: BRG1 Max % Inhibition
Listing of entries alongside the reported Emax.

INSERT INTO assay_data (compound, result) VALUES
  ('C[C@@H]1CN(c2cccc(-c3csc(NC(=O)CNC(=O)c4ccc5c(c4)[C@]4(CCO4)COC5)n3)n2)C[C@H](C)O1 [Compound 349]', '> 95%'),
  ('C[C@@H]1CN(c2cccc(-c3csc(NC(=O)CNC(=O)c4ccc5c(c4)[C@@](C)(CO)CC5)n3)n2)C[C@H](C)O1 [Compound 224]', '> 95%');

Reported Emax, compound CC(C)S(=O)(=O)c1cc(CO)cc(C(=O)NCC(=O)Nc2nc(-c3cccc(-c4ccncc4)c3)cs2)c1 [Compound 15] : ____ > 40%

Reported Emax, compound Cc1cc(-c2cccc(-c3csc(NC(=O)CNC(=O)c4ccc5c(c4)[C@@](C)(CO)CCC5)n3)c2)cc(C)n1 [Compound 231] : ____ > 80%

Reported Emax, compound Cc1nccc(-c2cccc(-c3csc(NC(=O)CNC(=O)c4cccc(S(=O)(=O)C(C)C)c4)n3)n2)n1 [Compound 121] : ____ > 80%

Reported Emax, compound COc1cccc(-c2csc(NC(=O)CNC(=O)c3ccc4c(c3)C(C)(F)CCCO4)n2)c1 (stereo in doubt) [Compound 325] : ____ > 95%

Reported Emax, compound C[C@@H]1CN(c2cccc(-c3csc(NC(=O)CNC(=O)c4cccc(C5(F)COC5)c4)n3)c2)C[C@H](C)O1 [Compound 183] : ____ > 70%

Reported Emax, compound CC(C(F)(F)F)S(=O)(=O)c1cccc(C(=O)NCC(=O)Nc2nc(-c3cccc(-c4ccncc4)c3)cs2)c1 (centres unmarked) [Compound 112] : ____ > 50%

Reported Emax, compound COc1cccc(-c2csc(NC(=O)CNC(=O)c3ccc4c(c3)[C@](C)(C#N)COC4)n2)n1 [Compound 397] : ____ > 95%

###

Biological target: BRM (Homo sapiens)
Test: ATPase catalytic activity assay of BRM (ADP-Glo)
Assay type: biochemical
Details: read-out: BRM IC50 (μM)*
OUTCOME_MEASURE: IC50

// worked examples, IC50 included
INSERT INTO results (substance_smiles, result) VALUES
  ('CC(C)S(=O)(=O)c1cccc(C(=O)NCC(=O)Nc2nc(-c3cccc(-c4cc(CO)cc(C(F)(F)F)c4)c3)cs2)c1', '< 0.1 µM'),
  ('Cc1nccc(-c2cccc(-c3csc(NC(=O)CNC(=O)c4cccc(S(=O)(=O)C(C)C)c4)n3)n2)n1', '0.1 to 1 µM'),
  ('Cc1cc(C(=O)NCC(=O)Nc2nc(-c3cccc(-c4ccncc4)c3)cs2)cc(S(=O)(=O)C(C)C)c1', '0.1 to 1 µM');

Okay, now this molecule:
Reported IC50, molecule CC(C)(CN)c1cccc(C(=O)NCC(=O)Nc2nc(-c3cccc(-c4cccc(CN)c4)c3)cs2)c1 : ____ 0.1 to 1 µM

###

Molecular target: BRM (Homo sapiens, UniProt P51531)
Test: ATPase catalytic activity assay of BRM (ADP-Glo)
Type: biochemical
OUTCOME_MEASURE: BRM Max % Inhibition

// worked examples, BRM Max % Inhibition included
INSERT INTO results (compound, assay_target, outcome_measure, result) VALUES
  ('CN1CCc2ccc(-c3csc(NC(=O)CNC(=O)c4ccc5c(c4)[C@@](C)(CO)CC5)n3)cc2C1=O [Compound 258]', 'BRM (Homo sapiens, UniProt P51531)', 'BRM Max % Inhibition', '>80%'),
  ('C[C@H](N)C(C)(C)c1cccc(C(=O)NCC(=O)Nc2nc(-c3cccc(-c4ccncc4)c3)cs2)c1 [Compound 91]', 'BRM (Homo sapiens, UniProt P51531)', 'BRM Max % Inhibition', '>50%'),
  ('CSCC[C@H](NC(=O)c1cccc(C(C)(C)CN)c1)C(=O)Nc1nc(-c2cccc(-c3ccncc3)c2)cs1 [Compound 48]', 'BRM (Homo sapiens, UniProt P51531)', 'BRM Max % Inhibition', '>95%'),
  ('C[C@@]1(C#N)COCc2ccc(C(=O)NCC(=O)Nc3nc(-c4cccc([C@H]5CC5(F)F)n4)cs3)cc21 [Compound 387]', 'BRM (Homo sapiens, UniProt P51531)', 'BRM Max % Inhibition', '>95%'),
  ('C[C@@H]1CN(c2cccc(-c3csc(NC(=O)CNC(=O)c4ccc5c(c4)C(F)(C(F)F)COC5)n3)c2)C[C@H](C)O1 (some centres unmarked) [Compound 329]', 'BRM (Homo sapiens, UniProt P51531)', 'BRM Max % Inhibition', '>95%');

Reported BRM Max % Inhibition, compound C[C@@H]1CN(c2cccc(-c3csc(NC(=O)CNC(=O)c4ccc5c(c4)C(F)(C(F)F)CCO5)n3)n2)C[C@H](C)O1 (stereo in doubt) [Compound 272] : ____ >95%

Reported BRM Max % Inhibition, compound CC(C)S(=O)(=O)c1cc(CO)cc(C(=O)NCC(=O)Nc2nc(-c3cccc(-c4ccncc4)c3)cs2)c1 [Compound 15] : ____ >50%

Reported BRM Max % Inhibition, compound C[C@@H]1CN(c2cccc(-c3csc(NC(=O)CNC(=O)c4ccc5c(c4)[C@](F)(C(F)F)CCO5)n3)c2)C[C@H](C)O1 [Compound 274] : ____ >95%

Reported BRM Max % Inhibition, compound C[C@]1(CO)CCc2c(C(=O)NCC(=O)Nc3nc(-c4cccc(-c5ccncc5)c4)cs3)cccc21 [Compound 226] : ____ >95%

###

Listing of entries alongside the reported IC50.
Molecular target: BRG-1 (Homo sapiens)
Assay: ATPase catalytic activity assay of BRG-1 (ADP-Glo)
Format: biochemical
Conditions: ATPase catalytic activity, ADP-Glo; read-out: BRG1 IC50 (μM)*

INSERT INTO results (compound, assay_target, outcome_measure, result) VALUES
  ('C[C@@H]1CN(c2cccc(-c3csc(NC(=O)CNC(=O)c4ccc5c(c4)[C@](C#N)(CO)CC5)n3)n2)C[C@H](C)O1', 'BRG-1 (Homo sapiens)', 'IC50', '< 0.1 µM'),
  ('C[C@@]1(C#N)COCc2ccc(C(=O)NCC(=O)Nc3nc(-c4cccc(C5CCO5)c4)cs3)cc21 (stereo partly shown) [Compound 371]', 'BRG-1 (Homo sapiens)', 'IC50', '0.1 to 1 µM'),
  ('CC(O)(c1cccc(C(=O)NCC(=O)Nc2nc(-c3cccc(-c4ccncc4)c3)cs2)c1)C(F)(F)F (stereo not shown)', 'BRG-1 (Homo sapiens)', 'IC50', '1 to 5 µM'),
  ('Cc1cc(-c2cccc(-c3csc(NC(=O)CNC(=O)c4cccc(S(=O)(=O)C(C)C)c4)n3)c2)cc(C)n1', 'BRG-1 (Homo sapiens)', 'IC50', '< 0.1 µM'),
  ('Cc1cc(-c2cccc(-c3csc(NC(=O)CNC(=O)c4cccc(C(C)(C)CO)c4)n3)n2)ncn1', 'BRG-1 (Homo sapiens)', 'IC50', '0.1 to 1 µM'),
  ('CC(C)S(=O)(=O)c1cccc(C(=O)NCC(=O)Nc2nc(-c3cccc(CO[C@H]4CC[C@H](O)CC4)c3)cs2)c1', 'BRG-1 (Homo sapiens)', 'IC50', '> 5 µM');

Reported IC50, compound CC(C)S(=O)(=O)c1cc(CO)cc(C(=O)NCC(=O)Nc2nc(-c3cccc(-c4ccncc4)c3)cs2)c1 : ____ > 5 µM
